# target entity: OR8/OR7 (Anopheles gambiae, UniProt Q7PUT5+Q7QCC7)
# Sequence (Q7PUT5 entry or part of it, one chain of several): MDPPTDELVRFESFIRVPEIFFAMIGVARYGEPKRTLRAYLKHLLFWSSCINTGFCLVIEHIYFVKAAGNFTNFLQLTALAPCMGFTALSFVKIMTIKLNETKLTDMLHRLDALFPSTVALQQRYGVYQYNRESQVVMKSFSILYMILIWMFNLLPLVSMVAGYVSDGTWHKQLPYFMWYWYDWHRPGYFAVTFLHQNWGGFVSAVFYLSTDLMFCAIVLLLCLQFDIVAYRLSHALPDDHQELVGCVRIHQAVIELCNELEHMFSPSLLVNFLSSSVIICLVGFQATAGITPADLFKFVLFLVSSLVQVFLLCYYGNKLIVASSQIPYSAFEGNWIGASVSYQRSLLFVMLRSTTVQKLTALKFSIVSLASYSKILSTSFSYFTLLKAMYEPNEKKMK
# test: Ca2+-imaging of stable HEK293T cell line OR8/OR7
# Type: cell-based
# particulars: HEK-293T; compound applied at 4 μM; read-out: Percent Inhibition OR8 OR7
Can you tell me inhibition at 4 µM for the items I'm about to list?

See these solved cases before continuing.
compound: Cc1cccc(Cn2ccnc2CN(C(=O)c2ccccc2F)C2CCCCC2)c1
inhibition at 4 µM: < 25%

compound: COCCN(Cc1cc(Cl)ccc1OS(=O)(=O)c1ccc(F)cc1)C(=O)C1CCC1
inhibition at 4 µM: 26 to 50%

compound: Cc1cccc(NC(=O)CCC2CCN(C(=O)CCOc3ccccc3)CC2)c1
inhibition at 4 µM: 26 to 50%

compound: COc1ccccc1CC(=O)N1CCOC(COc2ccc(C)cc2)C1 (centres unmarked)
inhibition at 4 µM: < 25%

compound: O=C(c1ccco1)N(Cc1ccco1)Cc1nccn1Cc1ccccc1F
inhibition at 4 µM: 51 to 74%

compound: CCN(CC)c1onc(-c2ccc(F)cc2)c1CN(CCCOC)C(=O)c1ccc2c(c1)OCO2
inhibition at 4 µM: 51 to 74%

compound: C=CCN(Cc1nccn1Cc1ccccc1F)C(=O)C1CCCC1
inhibition at 4 µM: 26 to 50%

compound: CCNc1nc(NC(C)C)nc(N(C#N)Cc2ccccc2)n1
inhibition at 4 µM: < 25%

Field: inhibition at 4 µM. Fill in for each record below.
1. COc1ccc(-c2cc(-c3ccccc3)n(C(=O)CN3CCN(Cc4ccccc4)CC3)n2)cc1
2. Cc1ccccc1C(=O)N[C@@H]1CCCCC1NC(=O)C1CCN(C(=O)c2cc(C(F)(F)F)cc(C(F)(F)F)c2)CC1 (some centres unmarked)
3. N#Cc1ccccc1C(=O)N1CCOC(COCc2c(Cl)cccc2Cl)C1 (centres unmarked)

< 25%
< 25%
26 to 50%

---

# target entity: OR10/OR7 (Anopheles gambiae, UniProt B5U0U7+Q7QCC7)
# Sequence (Q7QCC7 whole entry): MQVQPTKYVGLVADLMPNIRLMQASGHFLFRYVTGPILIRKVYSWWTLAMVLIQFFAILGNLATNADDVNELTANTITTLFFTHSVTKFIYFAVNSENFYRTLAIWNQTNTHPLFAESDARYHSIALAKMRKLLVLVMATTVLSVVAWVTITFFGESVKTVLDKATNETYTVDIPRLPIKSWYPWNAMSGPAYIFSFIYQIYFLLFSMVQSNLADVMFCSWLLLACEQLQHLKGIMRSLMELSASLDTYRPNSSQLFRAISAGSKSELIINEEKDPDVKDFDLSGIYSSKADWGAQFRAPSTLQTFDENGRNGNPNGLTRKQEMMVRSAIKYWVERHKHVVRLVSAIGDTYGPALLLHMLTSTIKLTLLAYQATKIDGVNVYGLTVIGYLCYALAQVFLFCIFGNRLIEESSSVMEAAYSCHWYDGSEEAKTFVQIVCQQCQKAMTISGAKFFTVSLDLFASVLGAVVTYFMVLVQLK
# Sequence (B5U0U7 entry or part of it): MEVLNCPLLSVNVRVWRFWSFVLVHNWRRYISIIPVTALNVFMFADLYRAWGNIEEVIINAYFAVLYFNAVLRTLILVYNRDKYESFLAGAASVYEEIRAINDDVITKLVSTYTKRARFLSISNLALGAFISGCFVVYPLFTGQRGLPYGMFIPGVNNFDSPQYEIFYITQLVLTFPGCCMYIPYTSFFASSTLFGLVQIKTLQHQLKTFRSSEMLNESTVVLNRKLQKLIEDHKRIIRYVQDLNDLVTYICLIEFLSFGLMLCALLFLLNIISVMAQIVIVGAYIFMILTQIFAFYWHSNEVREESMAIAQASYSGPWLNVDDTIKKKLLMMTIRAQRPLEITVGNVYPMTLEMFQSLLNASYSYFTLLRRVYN
# test: Ca2+-imaging of stable HEK293T cell line OR10/OR7
# Assay type: cell-based
# Method: Stable cell lines OR1/OR7, OR2/OR7, OR8/OR7, OR10/OR7, OR28/OR7 and TRPM8 were generated from HEK293T cells. […] Stable cell lines were cultured in 10 cm dishes, and confluent cells (70-80%) were trypsinized. […] 20 μL of Ca-4 dye was loaded into each well for 1.5 hr at room temperature in the dark, and the dye-loaded plates were subjected to Ca^2+-imaging using a Hamamatsu FDSS6000 real time fluorescence plate reader. […]
value type: IC50

See these solved cases before continuing.
mol smiles: CC(C)Nc1nc(Cl)nc(NCc2ccccc2)n1
IC50: > 20 µM
//
mol smiles: CCNc1nc(Cl)nc(NC(C)C)n1
IC50: 2 to 20 µM
//
mol smiles: CC(C)Nc1nc(Cl)nc(N(C)C(C)C)n1
IC50: > 20 µM
//
mol smiles: CCNc1nc(NCC)nc(SC)n1
IC50: 20 to 50 µM
//
mol smiles: CC(C)Nc1nc(NC(C)C)nc(C(F)(F)F)n1
IC50: > 20 µM
//
mol smiles: CC(C)Nc1nc(Cl)nc(NC(C)C)n1
IC50: > 20 µM
//
mol smiles: CCN(CC)C(=O)Oc1ccc2c(ccn2Cc2ccccc2Cl)c1NC(=O)CCCCC(=O)OC
IC50: < 0.1 µM
//
mol smiles: CCN(CC)C(=O)Oc1ccc2c(ccn2Cc2ccc(Cl)cc2)c1NC(=O)C1CC1
IC50: < 0.1 µM
//
mol smiles: CSc1nc(NC(C)C)nc(NC(C)C)n1
IC50: 2 to 20 µM
//
mol smiles: CCNc1nc(NC(C)C)nc(SC)n1
IC50: 2 to 20 µM

Consider the additional molecule presented here.
Recall and state the measured IC50 for "Cc1nc(NC(C)C)nc(NC(C)C)n1" .
> 20 µM
